- System: T47D
- testName: NCI tumour cell line growth inhibition, 48 h
Activity calls are given as the source filed them. Rule as the data show it: active = GI50 up to about 1.1 µM and inactive = higher. Starred links: 1 amine or outer side, 2 acyl side, 3 side chain; linkers in the order of their positions; H or OH if unused. Positions of bridges follow the written chain, without caps; N, C: chain ends. Non-standard residues stand in square brackets, D forms with d. Residues, ends and D or L forms follow the SMILES beside them. *: point of attachment. X40 = CC[C@H](C)[C@@H](N[*:1])[C@@H](O)CC(=O)[*:2]; NMeY = CN[C@@H](Cc1ccc(O)cc1)C(=O)O; dNMeL = CN[C@H](CC(C)C)C(=O)O; Hiv = CC(C)[C@H](O)C(=O)O; Pyruvoyl = CC(=O)C(=O)*
Write down the outcome that applies. Available outcomes: 1 (yes) = active, 0 (no) = inactive

Answered cases to consult:
CCOC(=O)C(=O)C(/C(=N/N(C)C)C(=O)Nc1ccc(C)cc1C)c1nc2ccccc2nc1O (stereo unspecified) | 0 (no)
O=C1CCC2C(O)c3cc4c(cc3C(c3ccc5c(c3)OCO5)N12)OCO4 (stereo unspecified) | 0 (no)
O=S(=O)(c1ccc(I)cc1)N(c1ccccc1)S(=O)(=O)C(F)(F)C(F)(F)C(F)(F)C(F)(F)F | 0 (no)

Recorded call for O=C1OC(C2Cc3cc4c(cc3C2=O)CCC4)c2ccccc21 (stereo unspecified) ? 0 (no)

// outcome(item) with item = C/C=C\C(CC(=O)NCCc1c[nH]c2ccccc12)CC(=O)OC (stereo unspecified) 0 (no)

Hey, what did the test say about CCCCCCCCCCCCCCCCCCOCC(CCP(=O)(CP(=O)(O)O)Oc1ccccc1)OCCCCCCCCCCCCCCCCCC (stereo unspecified) ? 0 (no)

Please share the test call associated with CCOC(=O)C(C)c1nc2cc3cccnc3c(Cl)c2[nH]c1=O (stereo unspecified) . 0 (no)

Can you look up the reported call for CN(C)CCNc1ccc(NCC[N+](C)(C)Cc2ccc([N+](=O)[O-])cc2)c2c1C(=O)c1c(O)ccc(O)c1C2=O for me? 0 (no)

Test call, this compound: Cc1ccc2c(c1)C1(C)OC(C=CC1=O)O2 (stereo unspecified) 1 (yes)

Returns: the outcome recorded for CC[C@H](C)[C@H]1NC(=O)[C@@H](NC(=O)[C@@H](CC(C)C)N(C)C(=O)[C@@H]2CCCN2C(=O)C(C)=O)[C@@H](C)OC(=O)[C@H](Cc2ccc(OC)cc2)N(C)C(=O)[C@@H]2CCCN2C(=O)[C@H](CC(C)C)NC(=O)[C@H](C(C)C)OC(=O)C[C@@H]1O (Pyruvoyl-P[dNMeL]T[X40][Hiv]LP[NMeY](Me); ester 3-C) in this assay. 1 (yes)

Field: outcome | Entry: COC(=O)/C(C#N)=C(/NCCN)Nc1ccccc1 0 (no)

What did this assay record as the result for Cc1cc2c(c(C(=O)NCCC(=O)N[C@@H](C)C(=O)OCc3ccccc3)c1)Oc1c(cc(C)cc1C(=O)NCCC(=O)N[C@@H](C)C(=O)OCc1ccccc1)S2 ? 0 (no)

What classification did O=C1N=C(c2ccccc2)O/C1=C\c1ccccc1 end up with in this test? 0 (no)

I'd appreciate the recorded outcome for CC(=O)c1c[nH]cc1CO from this test. 0 (no)

Which outcome was entered for the compound CC(C)CC1N=C(OCc2ccccc2)OC1=O (stereo unspecified) in this test? 0 (no)

// return assay outcome for CC(C)(C)OC(=O)NCCCCC(N)C(N)=O (stereo unspecified) 0 (no)
